- measurement.notes: in vivo
- assay.context: rat, po
experimental.readout: bioavailability
Give the value; after it, write the unit.

q: Fill in: bioavailability of Cn1nc(CC(CC(=O)O)c2ccc3c(c2)OCO3)cc1OCCc1ccc2c(n1)NCCC2 (stereo unspecified) is ___
a: 95%
